The origin of these recorded values is ChEMBL document CHEMBL5729376.

Measured pIC50 of individual entries
target: Amine oxidase [flavin-containing] A (Homo sapiens, UniProt P21397); assay: SSAO Activity Assay: Amine oxidase activity of recombinant hSSAO, hMAO-A, and hMAO-B isoforms are measured using the MAO-Glo assay kit (Promega, V1402). Ten nL test compounds (with DMSO as vehicle, 0.1% v/v for hSSAO, hMAO-A and hMAO-B) were added into assay plates by Echo, and pre-incubated with 5 μL of enzyme for 30 mins at room temperature before the addition of 5 μL of luminogenic substrate. The substrate concentration is 40 μM for human recombinant SSAO, 40 μM for human recombinant MAO-A, and 4 μM for human recombinant MAO-B. The hSSAO and hMAO-A assays were conducted in the MAO-A reaction buffer in the kit, and the MAO-B assay was conducted in the MAO-B reaction buffer. Oxidation of the substrate was conducted for 1 hr, before the addition of detecting reagent according the manufacture's protocol. The IC50 value of the tested compounds was calculated by fitting the dose response curve using a 4-parameter non-linear regression routine.
Sequence (P21397 whole entry, canonical isoform): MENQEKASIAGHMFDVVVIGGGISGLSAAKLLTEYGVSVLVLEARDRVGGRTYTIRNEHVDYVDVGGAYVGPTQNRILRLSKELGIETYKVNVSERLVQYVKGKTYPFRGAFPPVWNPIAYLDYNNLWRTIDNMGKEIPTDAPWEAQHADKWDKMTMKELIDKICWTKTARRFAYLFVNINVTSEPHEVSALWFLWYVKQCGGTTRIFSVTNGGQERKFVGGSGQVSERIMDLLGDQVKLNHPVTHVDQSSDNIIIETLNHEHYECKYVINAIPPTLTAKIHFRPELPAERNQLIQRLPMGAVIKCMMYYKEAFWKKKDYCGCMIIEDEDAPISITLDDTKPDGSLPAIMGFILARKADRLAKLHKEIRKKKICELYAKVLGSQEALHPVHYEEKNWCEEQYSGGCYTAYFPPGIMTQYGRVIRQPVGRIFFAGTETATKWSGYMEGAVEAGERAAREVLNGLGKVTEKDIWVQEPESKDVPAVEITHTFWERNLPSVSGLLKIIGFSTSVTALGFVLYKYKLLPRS
pIC50: −log10 of the molar value.
property.label: pIC50

> print(dat)
                                    compound  property.label  value.observed
 1  CC1(CS(=O)(=O)c2ccc(OC/C(=C/F)CN)cc2F)CCOCC1           pIC50          > 5.00
 2  CC1(C)COC(CS(=O)(=O)c2ccc(OC/C(=C/F)CN)cc2)CO1 (centres undefined)           pIC50          < 4.52
 3  NC/C(=C\F)COc1ccc(S(=O)(=O)C[C@H]2CCCO2)cc1           pIC50          < 4.52
 4  C[C@H](CN1CCCCC1=O)CS(=O)(=O)c1ccc(OC/C(=C/F)CN)cc1           pIC50          < 4.52
 5  CCN(CC(C)(C)CS(=O)(=O)c1ccc(OC/C(=C/F)CN)cc1)C(=O)C(C)C           pIC50          < 4.52
 6  NC/C(=C\F)COc1ccc(S(=O)(=O)Cc2ccc(C(=O)N3CCCC3)cc2)cc1           pIC50          < 4.52
 7  CN(C(=O)C1CC1)C12CCC(CS(=O)(=O)c3ccc(OC/C(=C/F)CN)cc3)(CC1)CC2           pIC50          < 4.52
 8  CCN(CC(C)CS(=O)(=O)c1ccc(OC/C(=C/F)CN)cc1)C(=O)C(C)C (centres undefined)           pIC50          < 4.52
 9  NC/C(=C\F)COc1ccc(S(=O)(=O)COCC2CCN(C(=O)C3(C(F)(F)F)CC3)CC2)cc1           pIC50          < 4.52
10  CC(C)C(=O)N(C)CC(C)(C)CS(=O)(=O)c1ccc(OC/C(=C/F)CN)cc1           pIC50          < 4.52
11  C[C@@H](CN1CCCC1=O)CS(=O)(=O)c1ccc(OC/C(=C/F)CN)cc1           pIC50          < 4.52
12  NC/C(=C\F)COc1ccc(S(=O)(=O)Cc2cnc(N3CCCC3)nc2)cc1           pIC50          < 4.52
13  NC/C(=C\F)COc1ccc(S(=O)(=O)C[C@@H]2CCOC2)cc1           pIC50    4.52 to 5.00
14  NC/C(=C\F)COc1ccc(S(=O)(=O)CC2CCN(C(=O)c3ccc(F)cc3)CC2)cc1           pIC50          > 5.00
15  C[C@@H](CN1CCC2(CCCC2)C1=O)CS(=O)(=O)c1ccc(OC/C(=C/F)CN)cc1           pIC50          < 4.52
16  NC/C(=C\F)COc1ccc(S(=O)(=O)CC23CCC(O)(CC2)CC3)cc1           pIC50          < 4.52
17  CN(C)C(=O)C12CCC(CS(=O)(=O)c3ccc(OC/C(=C/F)CN)cc3)(CC1)CC2           pIC50          < 4.52
18  COC1(CS(=O)(=O)c2ccc(OC/C(=C/F)CN)cc2)CCOCC1           pIC50          < 4.52
19  CC1(COCS(=O)(=O)c2ccc(OC/C(=C/F)CN)cc2)CCN(C(=O)C(C)(C)C)CC1           pIC50          < 4.52
20     COCCOCS(=O)(=O)c1ccc(OC/C(=C/F)CN)cc1           pIC50          < 4.52
21  COCC(COC)OCS(=O)(=O)c1ccc(OC/C(=C/F)CN)cc1           pIC50          < 4.52
22  CC(C)(C)C(=O)N1CCC(CS(=O)(=O)c2ccc(OC/C(=C/F)CN)cc2)CC1           pIC50          < 4.52
23  NC/C(=C\F)COc1ccc(S(=O)(=O)CC23CCC(C(=O)N4CCC(F)(F)CC4)(CC2)CC3)cc1           pIC50          < 4.52
24  N#CC12CCC(CS(=O)(=O)c3ccc(OC/C(=C/F)CN)cc3)(CC1)CC2           pIC50          < 4.52
25  NC/C(=C\F)COc1ccc(S(=O)(=O)CC2(CN3CCCCC3=O)CC2)cc1           pIC50          < 4.52
26  NC/C(=C\F)COc1ccc(S(=O)(=O)CC2CCOCC2)cc1F           pIC50          > 5.00
27        COCS(=O)(=O)c1ccc(OC/C(=C/F)CN)cc1           pIC50          < 4.52
28  CC1CCN(C23CCC(CS(=O)(=O)c4ccc(OC/C(=C/F)CN)cc4)(CC2)CC3)C1=O (centres undefined)           pIC50          < 4.52
29  CC(C)n1nc(CS(=O)(=O)c2ccc(OC/C(=C/F)CN)cc2)ccc1=O           pIC50          < 4.52
30  C[C@@H](CN1CCOCC1)CS(=O)(=O)c1ccc(OC/C(=C/F)CN)cc1           pIC50          < 4.52
31  CC(C)C(=O)N1CCC(C)(COCS(=O)(=O)c2ccc(OC/C(=C/F)CN)cc2)CC1           pIC50          < 4.52
32  NC/C(=C\F)COc1ccc(S(=O)(=O)C[C@H]2CC[C@@H](O)CC2)cc1           pIC50          > 5.00
33  CC(C)n1ccc(CS(=O)(=O)c2ccc(OC/C(=C/F)CN)cc2)cc1=O           pIC50          < 4.52
34  NC/C(=C\F)COc1ccc(S(=O)(=O)CC23CCC(N4CCCS4(=O)=O)(CC2)CC3)cc1           pIC50          < 4.52
35  NC/C(=C\F)COc1ccc(S(=O)(=O)CC23CCC(NC(=O)CC(F)(F)F)(CC2)CC3)cc1           pIC50          < 4.52
36  NC/C(=C\F)COc1ccc(S(=O)(=O)CC2CCCN(C(=O)C3CCCC3)C2)cc1 (centres undefined)           pIC50    4.52 to 5.00
37  NC/C(=C\F)COc1ccc(S(=O)(=O)CC23CCC(C(=O)O)(CC2)CC3)cc1           pIC50          < 4.52
38  NC/C(=C\F)COc1ccc(S(=O)(=O)CC23CCC(C(=O)NC4CCC4)(CC2)C3)cc1           pIC50          < 4.52
39  CC(C)C(=O)Nc1ccc(CS(=O)(=O)c2ccc(OC/C(=C/F)CN)cc2)cc1           pIC50          < 4.52
